This collection of values is drawn from patent US4952580A.

Recorded pest or weed control at 5 ppm, one value per entry.
- Tested on: root-knot nematode
- procedure details: Residual Root-Knot Nematicidal Activity
- Type: in vivo, Meloidogyne incognita
- stated conditions: 168 h, Table 3a; 5% dust, 5 ppm; inoculation 1 week post-treatment; read-out: Percent Control
assay endpoint: pest or weed control at 5 ppm (%)

FC(F)=C(F)CCSc1nnc(SCc2ccccc2)s1 :: 99
C=CCSc1nnc(SCCC(F)=C(F)F)s1 :: 97
FC(F)=C(F)CCSc1nnc(Cc2ccccc2)o1 :: 99
FC(F)=C(F)CCSc1nnc(Cc2ccc(Cl)cc2)o1 :: 100
FC(F)=C(F)CCSc1nnc(Cc2ccc(F)cc2F)o1 :: 99
FC(F)=C(F)CCSc1nnc(Cc2ccccc2F)o1 :: 100
FC(F)=C(F)CCSc1nnc(SCc2cccs2)s1 :: 98
CCCc1nnc(SCCC(F)=C(F)F)o1 :: 97
FC(F)=C(F)CCSc1nnc(-c2cccc(Cl)c2)o1 :: 97
CCCSc1nnc(SCCC(F)=C(F)F)s1 :: 100
FC(F)=C(F)CCSc1nnc(CCc2ccccc2)o1 :: 96
CC(C)Sc1nnc(SCCC(F)=C(F)F)s1 :: 98
FC(F)=C(F)CCSc1nsc(SCCC(F)=C(F)F)n1 :: 100
FC(F)=C(F)CCSc1nnc(Cc2ccc(F)cc2)o1 :: 99
N#CCCSc1nnc(SCCC(F)=C(F)F)s1 :: 100
O=[N+]([O-])c1ccc(CSc2nnc(SCCC(F)=C(F)F)s2)cc1 :: 99

----------
- Test system: root-knot nematode (Meloidogyne incognita)
- procedure details: Initial Root-Knot Nematicidal Activity
- Type: in vivo
- stated conditions: 336 h, Table 2, Application Rate 5.0 ppm, read-out: Percent Control
assay endpoint: pest or weed control at 5 ppm (%)

FC(F)=C(F)CCSc1nnc(-c2ccc(Cl)cc2)o1 :: 100
FC(F)=C(F)CCSC1=NCCS1 :: 99
O=C(CSCCC(F)=C(F)F)OCCC(F)=C(F)F :: 99
O=C(OCCC(F)=C(F)F)C(F)(F)C(F)(F)F :: 75
FC(F)=C(F)CCSc1cccs1 :: 99
O=C1c2ccccc2S(=O)(=O)N1CCC(F)=C(F)F :: 63
OCCCC(F)=C(F)F :: 44
FC(F)=C(F)CCSCc1cc2ccccc2s1 :: 83
CSc1nnc(SCCC(F)=C(F)F)s1 :: 96
O=C(CSC1=NCCS1)OCCC(F)=C(F)F :: 84

----------
Recorded mortality at 5 ppm, one value per entry.
- System: Caenorhabditis elegans
- procedure details: C. Elegans Nematode Screening Test and Evaluation (in-vitro)
- stated conditions: Caenorhabditis elegans, Table 9 screen; 5 ppm; read-out: Percent Mortality
assay endpoint: mortality at 5 ppm (%)

O=[N+]([O-])c1ccc(CSc2nnc(SCCC(F)=C(F)F)s2)cc1 :: 100
FC(F)=C(F)CCSc1nnc(SCc2ccc(Br)cc2)s1 :: 100
FC(F)=C(F)CCSc1nnc(SCc2ccccc2F)s1 :: 25
C=CCSc1nnc(SCCC(F)=C(F)F)s1 :: 0
FC(F)=C(F)CCSc1nnc(Cc2ccccc2F)o1 :: 0
FC(F)=C(F)CCSc1nnc(Cc2ccc(F)cc2)o1 :: 0
FC(F)=C(F)CCSc1nnc(SCc2ccccc2)s1 :: 100
FC(F)=C(F)CCSc1nnc(Cc2ccc(Cl)cc2)o1 :: 25
FC(F)=C(F)CCSc1nnc(-c2cccc(Cl)c2)o1 :: 88
FCCSc1nnc(SCCC(F)=C(F)F)s1 :: 0
FC(F)=C(F)CCSc1nc(-c2ccc(Cl)cc2)no1 :: 100
FC(F)=C(F)CCSc1nnc(-c2ccc(Cl)cc2)s1 :: 100
O=[N+]([O-])c1ccc(CSc2nsc(SCCC(F)=C(F)F)n2)cc1 :: 100
FC(F)=C(F)CCSc1nsc(SCCC(F)=C(F)F)n1 :: 75
